Below are Ki values recorded for Adenosine receptor A2a (Rattus norvegicus, UniProt P30543).

Consider the reported Ki for these molecules:
Item under review: Cn1c(=O)c2c(nc3n2CCN(Cc2cn(-c4ccc(Cl)cc4)nn2)C3)n(C)c1=O . Reported Ki?
> 1000 nM

Next molecule up: Cn1c(=O)c2c(nc3n2CCN(CCc2cccc(Br)c2)C3)n(C)c1=O
2120 nM

Next molecule up: Cn1c(=O)c2c(nc3n2CCN(CCc2ccc(O)cc2)C3)n(C)c1=O
6040 nM

Further cases:
Item under review: Cn1c(=O)c2c(nc3n2CCN(CCOc2cccc(F)c2)C3)n(C)c1=O . Reported Ki?
> 1000 nM

Next molecule up: Cc1sc(-c2ccc(C(F)(F)F)cc2)nc1CN1CCn2c(nc3c2c(=O)n(C)c(=O)n3C)C1
> 1000 nM

Next molecule up: Cn1c(=O)c2c(nc3n2CCN(CCCn2ccnc2)C3)n(C)c1=O
> 1000 nM

Next molecule up: Cn1c(=O)c2c(nc3n2CCN(CCn2cccc2)C3)n(C)c1=O
> 1000 nM
